- Method summary: Compound stability in rat liver microsomes
- Assay type: in vitro ADME
- Condition context: pH 7.4, 37° C., NADPH, read-out: Rat T1/2
Assign yes (1) to entries whose half-life meets or exceeds 20 min; assign no (0) to the rest.

Compound: CCC1CN(c2ccc(C#N)cn2)CCC1N(C)c1nc(Nc2ccc3c(C)n(C)nc3c2)ncc1Cl (stereo not drawn) [Ex. 20]
Class name: no (0)
--
Compound: CCC1CN(c2ccc(C#N)cn2)CCC1Nc1nc(Nc2cn(C)nc2C)ncc1Cl (stereo not drawn) [Ex. 16]
Class name: no (0)
--
Compound: Cn1cc(Nc2ncc(Cl)c(NC3CCN(c4ccc(C#N)cn4)CC3)n2)cn1 [Ex. 1]
Class name: yes (1)
--
Compound: CCC1CN(c2ccc(C#N)nn2)CCC1Nc1ccnc(Nc2cc(C)n(C)n2)n1 (stereo not drawn) [Ex. 22]
Class name: yes (1)
--
Compound: CN(c1nc(Nc2cnn(C)c2)ncc1Cl)C1CCN(c2ccc(C#N)cn2)CC1 [Ex. 5]
Class name: no (0)

* * *

- Method summary: Compound stability in rat liver microsomes
- Format: in vitro ADME
- Condition context: pH 7.4, in vivo CLint extrapolated
Measured attribute: CLint scaled (mL/min/kg)

Compound: Cc1cc(Nc2ncc(Cl)c(N(C)C3CCN(c4ccc(C#N)cn4)CC3)n2)nn1C
Unit spec: mL/min/kg
Obs value: 240
//
Compound: CN(c1nc(Nc2cnn(C)c2)ncc1Cl)C1CCN(c2ccc(C#N)cn2)C1 (stereo not shown)
Unit spec: mL/min/kg
Obs value: 270
//
Compound: CCC1CN(c2ccc(C#N)nn2)CCC1Nc1nc(Nc2ccc3c(C)n(C)nc3c2)ncc1Cl (stereo not shown)
Unit spec: mL/min/kg
Obs value: 652
//
Compound: CCC1CN(c2ccc(C#N)nn2)CCC1N(C)c1nc(Nc2ccc3c(C)n(C)nc3c2)ncc1Cl (stereo not shown)
Unit spec: mL/min/kg
Obs value: 379

* * *

- Method summary: Compound stability in human liver microsomes
- Type: in vitro ADME
- Condition context: pH 7.4, 37° C., NADPH, read-out: Human T1/2
Measured attribute: log10 half-life (log10 of the value in min)

Compound: Cc1c2ccc(Nc3ncc(Cl)c(N(C)C4CCN(c5ccc(C#N)nn5)CC4)n3)cc2nn1C
log10 half-life: 0.81
//
Compound: Cn1cc(Nc2ncc(Cl)c(NC3CCN(c4ccc(C#N)cn4)CC3)n2)cn1
log10 half-life: 1.61
//
Compound: CCC1CN(c2ccc(C#N)nn2)CCC1Nc1ccnc(Nc2cc(C)n(C)n2)n1 (stereo not drawn)
log10 half-life: 1.80
//
Compound: CCC1CN(c2ccc(C#N)cn2)CCC1Nc1nc(Nc2ccc3c(C)n(C)nc3c2)ncc1Cl (stereo not drawn)
log10 half-life: 1.19
//
Compound: Cc1nn(C)cc1Nc1ncc(Cl)c(N(C)C2CCN(c3ccc(C#N)cn3)CC2)n1
log10 half-life: 0.90
//
Compound: Cc1nn(C)cc1Nc1ncc(Cl)c(NC2CCN(c3ccc(C#N)cn3)CC2)n1
log10 half-life: 0.74
//
Compound: Cc1cnc(Nc2cnn(C)c2)nc1N(C)C1CCN(c2ccc(C#N)cn2)CC1
log10 half-life: 1.19
//
Compound: CCC1CN(c2ccc(C#N)cn2)CCC1N(C)c1nc(Nc2cc(C)n(C)n2)ncc1Cl (stereo not drawn)
log10 half-life: 1.36
//
Compound: CCC1CN(c2ccc(C#N)cn2)CCC1N(C)c1nc(Nc2ccc3c(C)n(C)nc3c2)ncc1Cl (stereo not drawn)
log10 half-life: 1.41
//
Compound: CCC1CN(c2ccc(C#N)cn2)CCC1Nc1nc(Nc2cc(C)n(C)n2)ncc1Cl (stereo not drawn)
log10 half-life: 1.25
//
Compound: CN(c1nc(Nc2cnn(C)c2)ncc1Cl)C1CCN(c2ccc(C#N)cn2)CC1
log10 half-life: 1.36
//
Compound: Cc1cc(Nc2ncc(Cl)c(N(C)C3CCN(c4ccc(C#N)cn4)CC3)n2)nn1C
log10 half-life: 1.25
//
Compound: Cc1nn(C)cc1Nc1ncc(Cl)c(NC2CCN(c3ccc(C#N)nn3)CC2)n1
log10 half-life: 1.12
//
Compound: CCC1CN(c2ccc(C#N)cn2)CCC1Nc1nc(Nc2cn(C)nc2C)ncc1Cl (stereo not drawn)
log10 half-life: 0.60
//
Compound: Cc1cc(Nc2ncc(Cl)c(NC3CCN(c4ccc(C#N)cn4)CC3)n2)n[nH]1
log10 half-life: 2.21
//
Compound: Cc1c2ccc(Nc3ncc(Cl)c(NC4CCN(c5ccc(C#N)nn5)CC4)n3)cc2nn1C
log10 half-life: 1.40
//
Compound: Cc1c2ccc(Nc3ncc(Cl)c(NC4CCN(c5ccc(C#N)cn5)CC4)n3)cc2nn1C
log10 half-life: 1.12
//
Compound: Cc1cc(Nc2ncc(Cl)c(NC3CCN(c4ccc(C#N)cn4)CC3)n2)nn1C
log10 half-life: 1.56

Hello, the source for this data is patent US10059689B2, in case you need it.
